Assay read-out pIC50; system under study: UniProtKB P09237.
Sequence (P09237 whole entry): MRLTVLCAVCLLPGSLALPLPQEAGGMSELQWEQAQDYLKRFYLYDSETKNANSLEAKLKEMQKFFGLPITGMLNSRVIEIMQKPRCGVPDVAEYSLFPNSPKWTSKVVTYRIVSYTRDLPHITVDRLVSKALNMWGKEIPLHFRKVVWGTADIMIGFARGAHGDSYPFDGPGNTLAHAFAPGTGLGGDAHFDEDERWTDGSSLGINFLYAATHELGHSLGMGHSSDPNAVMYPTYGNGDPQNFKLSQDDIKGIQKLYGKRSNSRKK
pIC50: −log10 of the molar value.
Endpoint label: pIC50

(I) Cc1cccc(-c2ccc(S(=O)(=O)N[C@@H](C(C)C)P(=O)(O)O)cc2)c1
(II) CCOc1ccc(-c2ccc(S(=O)(=O)N[C@@H](C(C)C)P(=O)(O)O)cc2)cc1
(III) COc1ccc(CCc2ccc(S(=O)(=O)N[C@@H](C(C)C)P(=O)(O)O)cc2)cc1
// sort listed items: pIC50 descending In plain terms: list the labels in the order you were asked to.
II, I, III

====

- Target system: 72 kDa type IV collagenase (Homo sapiens)
- Sequence (P08253 whole entry): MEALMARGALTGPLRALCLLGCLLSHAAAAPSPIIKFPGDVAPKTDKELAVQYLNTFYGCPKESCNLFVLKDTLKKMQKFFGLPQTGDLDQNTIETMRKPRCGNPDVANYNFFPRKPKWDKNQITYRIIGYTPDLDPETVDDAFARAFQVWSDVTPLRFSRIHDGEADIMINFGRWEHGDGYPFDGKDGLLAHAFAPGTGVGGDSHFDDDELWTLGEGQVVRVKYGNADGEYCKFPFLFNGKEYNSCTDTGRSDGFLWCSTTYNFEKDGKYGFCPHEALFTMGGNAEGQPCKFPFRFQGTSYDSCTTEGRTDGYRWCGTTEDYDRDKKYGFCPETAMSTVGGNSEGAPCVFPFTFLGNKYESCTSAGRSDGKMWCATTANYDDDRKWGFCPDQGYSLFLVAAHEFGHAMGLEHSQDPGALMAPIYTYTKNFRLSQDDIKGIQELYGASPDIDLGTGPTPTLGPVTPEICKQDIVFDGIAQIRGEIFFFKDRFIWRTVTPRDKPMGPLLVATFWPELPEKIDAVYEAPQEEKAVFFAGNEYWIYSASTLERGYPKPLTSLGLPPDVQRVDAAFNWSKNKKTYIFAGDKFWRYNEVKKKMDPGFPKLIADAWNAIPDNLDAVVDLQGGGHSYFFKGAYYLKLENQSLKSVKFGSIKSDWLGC
- Assay comment: Inhibition of human recombinant MMP2 expressed in mouse myeloma cells
pIC50: −log10 of the molar value.
Endpoint label: pIC50

Example entries and their recorded answers appear below.
CC(C)Oc1ccc(-c2ccc(S(=O)(=O)N[C@@H](C(C)C)P(=O)(O)O)cc2)cc1 ... 8.74
Cc1cccc(-c2ccc(S(=O)(=O)N[C@@H](C(C)C)P(=O)(O)O)cc2)c1 ... 7.62

(P) COc1ccc(-c2ccc(S(=O)(=O)N[C@H](C(C)C)P(=O)(O)O)cc2)cc1
(Q) CC(C)[C@H](NS(=O)(=O)c1ccc(-c2cccc(Cl)c2)cc1)P(=O)(O)O
(R) Cc1ccc(-c2ccc(S(=O)(=O)N[C@@H](C(C)C)P(=O)(O)O)cc2)cc1
(S) CC(C)[C@H](NS(=O)(=O)c1ccc(-c2cccc(F)c2)cc1)P(=O)(O)O
(T) CC(C)[C@H](NS(=O)(=O)c1ccc(-c2ccc(Cl)cc2)cc1)P(=O)(O)O
Order each entry by recorded pIC50, climbing from the minimum. In plain terms: list the labels in the order you were asked to.
P, S, Q, T, R
(P: 5.96, S: 7.28, Q: 7.52, T: 8.06, R: 8.64)

(a) CC(C)[C@H](NS(=O)(=O)c1ccc(CCc2ccccc2)cc1)P(=O)(O)O
(b) CC(C)[C@H](NS(=O)(=O)c1ccc(-c2ccc(F)cc2)cc1)P(=O)(O)O
Which record would sort first by descending pIC50, a or b ? Write down the label attached to your selection.
b

====

- Target system: Matrix metalloproteinase-9 (Homo sapiens, UniProt P14780)
- Sequence (P14780 whole entry): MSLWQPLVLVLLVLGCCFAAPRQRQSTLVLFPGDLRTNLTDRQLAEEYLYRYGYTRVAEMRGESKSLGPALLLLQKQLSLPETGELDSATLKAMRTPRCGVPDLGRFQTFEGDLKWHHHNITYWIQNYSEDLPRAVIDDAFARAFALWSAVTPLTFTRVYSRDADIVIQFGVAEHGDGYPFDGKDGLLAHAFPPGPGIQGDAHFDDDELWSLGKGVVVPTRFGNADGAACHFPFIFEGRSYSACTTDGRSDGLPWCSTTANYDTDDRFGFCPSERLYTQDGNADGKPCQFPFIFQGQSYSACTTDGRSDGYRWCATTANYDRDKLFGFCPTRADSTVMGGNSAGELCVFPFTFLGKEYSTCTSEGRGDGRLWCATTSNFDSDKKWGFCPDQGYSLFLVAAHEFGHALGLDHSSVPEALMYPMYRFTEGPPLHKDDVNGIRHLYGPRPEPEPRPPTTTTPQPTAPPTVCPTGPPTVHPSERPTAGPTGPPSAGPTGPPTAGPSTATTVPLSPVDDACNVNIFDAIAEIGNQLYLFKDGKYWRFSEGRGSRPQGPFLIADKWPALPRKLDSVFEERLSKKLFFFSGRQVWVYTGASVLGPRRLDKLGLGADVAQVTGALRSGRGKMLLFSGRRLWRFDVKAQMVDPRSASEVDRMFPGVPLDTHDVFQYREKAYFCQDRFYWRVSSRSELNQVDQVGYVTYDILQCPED
- Assay comment: Inhibition of human recombinant MMP9 expressed in mouse myeloma cells
- Type: cell-based
pIC50: −log10 of the molar value.
Endpoint label: pIC50

Example entries and their recorded answers appear below.
CC(C)[C@H](NS(=O)(=O)c1ccc(CCc2ccccc2)cc1)P(=O)(O)O ... 5.15
Cc1ccc(-c2ccc(S(=O)(=O)N[C@@H](C(C)C)P(=O)(O)O)cc2)cc1 ... 8.39
CC(C)[C@H](NS(=O)(=O)c1ccc(-c2ccc(Cl)cc2)cc1)P(=O)(O)O ... 7.68
COc1ccc(-c2ccc(S(=O)(=O)N[C@@H](C(C)C)P(=O)(O)O)cc2)cc1 ... 8.10
CC(C)[C@H](NS(=O)(=O)c1ccc(-c2cccc(F)c2)cc1)P(=O)(O)O ... 6.77

(P) CC(C)[C@H](NS(=O)(=O)c1ccc(-c2cccc(Cl)c2)cc1)P(=O)(O)O
(Q) COc1ccc(CCc2ccc(S(=O)(=O)N[C@@H](C(C)C)P(=O)(O)O)cc2)cc1
Select the item whose pIC50 value is smaller, choosing between P and Q . Write down the label attached to your selection.
Q

====

- Target system: 72 kDa type IV collagenase (Homo sapiens)
- Assay comment: Inhibition of human recombinant MMP2 expressed in mouse myeloma cells
pIC50: −log10 of the molar value.
Endpoint label: pIC50

COc1ccc(-c2ccc(S(=O)(=O)N[C@@H](C(C)C)P(=O)(O)O)cc2)cc1 ... 8.82

(A) CCOc1ccc(-c2ccc(S(=O)(=O)N[C@@H](C(C)C)P(=O)(O)O)cc2)cc1
(B) COc1ccc(CCc2ccc(S(=O)(=O)N[C@@H](C(C)C)P(=O)(O)O)cc2)cc1
Select the item whose pIC50 value is smaller, choosing between A and B . Write down the label attached to your selection.
B
(B: 6.10, A: 9.41)

====

- Target system: Neutrophil collagenase (Homo sapiens, UniProt P22894)
- Sequence (P22894 whole entry): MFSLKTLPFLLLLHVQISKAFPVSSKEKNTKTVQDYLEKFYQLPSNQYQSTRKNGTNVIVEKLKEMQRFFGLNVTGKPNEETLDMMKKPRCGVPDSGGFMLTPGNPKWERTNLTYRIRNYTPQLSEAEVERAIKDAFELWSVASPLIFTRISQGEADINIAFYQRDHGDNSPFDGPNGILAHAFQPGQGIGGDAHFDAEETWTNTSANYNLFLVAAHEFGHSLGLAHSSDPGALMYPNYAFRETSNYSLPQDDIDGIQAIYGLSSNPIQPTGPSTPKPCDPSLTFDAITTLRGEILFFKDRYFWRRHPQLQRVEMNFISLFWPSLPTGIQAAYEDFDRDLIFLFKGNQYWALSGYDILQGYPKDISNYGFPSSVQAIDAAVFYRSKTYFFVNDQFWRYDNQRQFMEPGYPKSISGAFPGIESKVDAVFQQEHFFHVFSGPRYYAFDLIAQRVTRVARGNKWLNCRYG
- Assay comment: Inhibition of MMP8
Endpoint label: IC50 (nM)

CC(C)[C@H](NS(=O)(=O)c1ccc(-c2ccc(F)cc2)cc1)P(=O)(O)O ... 1.1
Cc1cccc(-c2ccc(S(=O)(=O)N[C@@H](C(C)C)P(=O)(O)O)cc2)c1 ... 0.4
COc1ccc(CCc2ccc(S(=O)(=O)N[C@@H](C(C)C)P(=O)(O)O)cc2)cc1 ... 110
CC(C)[C@H](NS(=O)(=O)c1ccc(-c2ccc(Cl)cc2)cc1)P(=O)(O)O ... 0.81
CC(C)[C@H](NS(=O)(=O)c1ccc(-c2cccc(F)c2)cc1)P(=O)(O)O ... 2.4

(A) CC(C)Oc1ccc(-c2ccc(S(=O)(=O)N[C@@H](C(C)C)P(=O)(O)O)cc2)cc1
(B) CC(C)[C@H](NS(=O)(=O)c1ccc(CCc2ccccc2)cc1)P(=O)(O)O
Which record would sort first by descending IC50, A or B ? Write down the label attached to your selection.
B

(I) Cc1ccc(-c2ccc(S(=O)(=O)N[C@@H](C(C)C)P(=O)(O)O)cc2)cc1
(II) CC(C)[C@H](NS(=O)(=O)c1ccc(-c2cccc(Cl)c2)cc1)P(=O)(O)O
Which record would sort first by descending IC50, I or II ? Write down the label attached to your selection.
II
(II: 1.3 nM, I: 0.39 nM)

====

- Target system: Interstitial collagenase (Homo sapiens, UniProt P03956)
- Sequence (P03956 whole entry): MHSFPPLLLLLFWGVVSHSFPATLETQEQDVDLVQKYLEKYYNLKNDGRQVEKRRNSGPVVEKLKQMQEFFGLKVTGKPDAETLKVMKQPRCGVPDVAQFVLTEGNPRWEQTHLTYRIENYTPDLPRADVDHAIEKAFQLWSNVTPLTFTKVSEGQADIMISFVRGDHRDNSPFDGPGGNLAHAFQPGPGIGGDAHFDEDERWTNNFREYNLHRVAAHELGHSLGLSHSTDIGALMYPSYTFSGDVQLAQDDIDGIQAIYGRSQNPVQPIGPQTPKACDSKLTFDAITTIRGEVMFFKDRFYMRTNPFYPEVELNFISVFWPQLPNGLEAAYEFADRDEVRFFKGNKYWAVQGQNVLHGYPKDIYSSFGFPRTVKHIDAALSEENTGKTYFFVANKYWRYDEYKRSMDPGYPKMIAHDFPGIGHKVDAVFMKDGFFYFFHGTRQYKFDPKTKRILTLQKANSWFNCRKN
pIC50: −log10 of the molar value.
Endpoint label: pIC50

Example entries and their recorded answers appear below.
CC(C)Oc1ccc(-c2ccc(S(=O)(=O)N[C@@H](C(C)C)P(=O)(O)O)cc2)cc1 ... 6.22
CC(C)[C@H](NS(=O)(=O)c1ccc(-c2ccc(Cl)cc2)cc1)P(=O)(O)O ... 7.11

(1) CC(C)[C@H](NS(=O)(=O)c1ccc(-c2cccc(F)c2)cc1)P(=O)(O)O
(2) CC(C)[C@H](NS(=O)(=O)c1ccc(-c2cccc(Cl)c2)cc1)P(=O)(O)O
(3) CC(C)[C@H](NS(=O)(=O)c1ccc(-c2ccc(F)cc2)cc1)P(=O)(O)O
Hello, I need these entries ordered by pIC50, highest reading first. Thanks! In plain terms: list the labels in the order you were asked to.
3, 2, 1
(3: 6.80, 2: 6.49, 1: 6.23)

====

Assay read-out IC50; system under study: Stromelysin-1 (Homo sapiens).
Sequence (P08254 whole entry): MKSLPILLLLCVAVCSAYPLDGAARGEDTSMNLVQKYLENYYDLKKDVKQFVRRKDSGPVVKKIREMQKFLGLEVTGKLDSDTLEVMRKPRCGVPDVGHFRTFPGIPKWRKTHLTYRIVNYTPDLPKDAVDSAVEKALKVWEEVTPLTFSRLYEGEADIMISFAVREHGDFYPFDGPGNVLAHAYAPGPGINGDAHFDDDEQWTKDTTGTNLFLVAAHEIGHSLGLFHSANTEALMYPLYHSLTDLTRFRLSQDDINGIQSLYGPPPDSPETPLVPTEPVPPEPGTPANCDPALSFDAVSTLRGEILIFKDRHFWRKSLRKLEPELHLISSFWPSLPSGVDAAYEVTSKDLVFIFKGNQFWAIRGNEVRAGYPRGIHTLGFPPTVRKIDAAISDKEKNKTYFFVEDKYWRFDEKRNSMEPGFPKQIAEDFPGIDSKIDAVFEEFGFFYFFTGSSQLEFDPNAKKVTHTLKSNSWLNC
Endpoint label: IC50 (nM)

Example entries and their recorded answers appear below.
CC(C)[C@H](NS(=O)(=O)c1ccc(-c2cccc(Cl)c2)cc1)P(=O)(O)O ... 440
COc1ccc(-c2ccc(S(=O)(=O)N[C@@H](C(C)C)P(=O)(O)O)cc2)cc1 ... 52
CCOc1ccc(-c2ccc(S(=O)(=O)N[C@@H](C(C)C)P(=O)(O)O)cc2)cc1 ... 12
CC(C)[C@H](NS(=O)(=O)c1ccc(-c2ccc(F)cc2)cc1)P(=O)(O)O ... 150

(A) CC(C)[C@H](NS(=O)(=O)c1ccc(-c2ccc(Cl)cc2)cc1)P(=O)(O)O
(B) Cc1cccc(-c2ccc(S(=O)(=O)N[C@@H](C(C)C)P(=O)(O)O)cc2)c1
Which record would sort first by descending IC50, A or B ? Write down the label attached to your selection.
B

====

- Target system: UniProtKB P14780
- Assay comment: Inhibition of human recombinant MMP9 expressed in mouse myeloma cells
Endpoint label: IC50 (nM)

CC(C)[C@H](NS(=O)(=O)c1ccc(-c2ccc(F)cc2)cc1)P(=O)(O)O ... 59

(P) Cc1cccc(-c2ccc(S(=O)(=O)N[C@@H](C(C)C)P(=O)(O)O)cc2)c1
(Q) CC(C)Oc1ccc(-c2ccc(S(=O)(=O)N[C@@H](C(C)C)P(=O)(O)O)cc2)cc1
(R) CCOc1ccc(-c2ccc(S(=O)(=O)N[C@@H](C(C)C)P(=O)(O)O)cc2)cc1
Hello, I need these entries ordered by IC50, highest reading first. Thanks! In plain terms: list the labels in the order you were asked to.
P, Q, R
